ASSAYED TARGET: T1, Peptide 4: Biotin-AGGGGSGGGGSGGGGSAAA-Tyr-acid (N-terminal biotin; C-terminal acid)
T1 construct: control peptide without PC
T1 peptide: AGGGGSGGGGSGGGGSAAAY
PROTOCOL DETAILS: scFv ELISA
Can you tell me OD450 for the items I'm about to list?
Numbers only, in OD450.

These recorded examples may help you get a feel for the data.
BINDER	ENDPOINT LABEL	VALUE UNITS	NUMERIC VALUE
PcOxP_DB02_G07 (scFv, V domains shown, scFv in periplasmic extract) VH: EVQLLESGGGLVQPGGSLRLSCAASGFTFSDGYMEWVRQAPGKGLEWVAASRNKANDYTTEYADSVKGRFTISRDNSKNTLYLQMNSLRAEDTAVYYCARDYYGSSYWYFDVWGQGTLVTVSS VL: DIQMTQSPSSLSASVGDRVTITCTASESLYSSKHKVHYLAWYQQKPGKAPKLLIYGASNRYGGVPSRFSGSGSGTDFTLTISSLQPEDFATYYCAQFYSYPLTFGGGTKVEIK	OD450	OD450	0.05
PcOxP_DB03_F01 (scFv, V domains shown, scFv in periplasmic extract) VH: EVQLLESGGGLVQPGGSLRLSCAASGFTFNDFYMEWVRQAPGKGLEWVAASRNKANDYTTEYADSVKGRFTISRDNSKNTLYLQMNSLRAEDTAVYYCARDYYGSSYWYFDVWGQGTLVTVSS VL: DIQMTQSPSSLSASVGDRVTITCEASESLYSSKHKVHYLAWYQQKPGKAPKLLIYGASNRLIGVPSRFSGSGSGTDFTLTISSLQPEDFATYYCAQFYEYPLTFGGGTKVEIK	OD450	OD450	0.05
PcOxP_DB03_A11 (scFv, V domains shown, scFv in periplasmic extract) VH: EVQLLESGGGLVQPGGSLRLSCAASGFTFSSYYMEWVRQAPGKGLEWVAASRNQANDYTTEYADSVKGRFTISRDNSKNTLYLQMNSLRAEDTAVYYCARDYYGSSYWYLDVWGQGTLVTVSS VL: DIQMTQSPSSLSASVGDRVTITCTASESLYSSKHKVHYLAWYQQKPGKAPKLLIYGADNRYIGVPSRFSGSGSGTDFTLTISSLQPEDFATYYCAQFYHYPLTFGGGTKVEIK	OD450	OD450	0.05
PcOxP_DB01_D05 (scFv, V domains shown, scFv in periplasmic extract) VH: EVQLLESGGGLVQPGGSLRLSCAASGFTFSDGYMEWVRQAPGKGLEWVAASRNKANDYTTEYADSVKGRFTISRDNSKNTLYLQMNSLRAEDTAVYYCARDYYGSPYWYFDVWGQGTLVTVSS VL: DIQMTQSPSSLSASVGDRVTITCTASESLYSSKHKVHYLAWYQQKPGKAPKLLIYGASNRYVGVPSRFSGSGSGTDFTLTISSLQPEDFATYYCAQFYSYPLTFGGGTKVEIK	OD450	OD450	0.06
PcOxP_DB02_B02 (scFv, V domains shown, scFv in periplasmic extract) VH: EVQLLESGGGLVQPGGSLRLSCAASGFTFSDYYMEWVRQAPGKGLEWVAASRNSGNDYTTEYADSVKGRFTISRDNSKNTLYLQMNSLRAEDTAVYYCARDYYGSSYWYFDVWGQGTLVTVSS VL: DIQMTQSPSSLSASVGDRVTITCTASESLYSSKHKVHYLAWYQQKPGKAPKLLIYGASNRLIGVPSRFSGSGSGTDFTLTISSLQPEDFATYYCAQFYWYPLTFGGGTKVEIK	OD450	OD450	0.05
PcOxP_DB01_D08 (scFv, V domains shown, scFv in periplasmic extract) VH: EVQLLESGGGLVQPGGSLRLSCAASGFTFSDAYMEWVRQAPGKGLEWVAASRNKANDYTTEYADSVKGRFTISRDNSKNTLYLQMNSLRAEDTAVYYCARDYYGSSYWYFDSWGQGTLVTVSS VL: DIQMTQSPSSLSASVGDRVTITCTASESLYSSKHKVHYLAWYQQKPGKAPKLLIYGASNRYIGVPSRFSGSGSGTDFTLTISSLQPEDFATYYCAQFYSYPLTFGGGTKVEIK	OD450	OD450	0.05
PcOxP_DB02_F07 (scFv, V domains shown, scFv in periplasmic extract) VH: EVQLLESGGGLVQPGGSLRLSCAASGFWFSDFYMEWVRQAPGKGLEWVAASRNKANDYTTEYADSVKGRFTISRDNSKNTLYLQMNSLRAEDTAVYYCARDYYGSSYWYFDVWGQGTLVTVSS VL: DIQMTQSPSSLSASVGDRVTITCTASQSLYSSKNKVHYLAWYQQKPGKAPKLLIYGESNRYIGVPSRFSGSGSGTDFTLTISSLQPEDFATYYCAQFYSYPLTFGGGTKVEIK	OD450	OD450	0.05
PcOxP_DB01_C12 (scFv, V domains shown, scFv in periplasmic extract) VH: EVQLLESGGGLVQPGGSLRLSCAASGFTFSDFYMEWVRQAPGKGLEWVAASRNKANDYTTELADSVKGRFTISRDNSKNTLYLQMNSLRAEDTAVYYCARDYYGSSYWYFDVWGQGTLVTVSS VL: DIQMTQSPSSLSASVGDRVTITCTASESLYSSKHKVHYLAWYQQKPGKAPKLLIYGAANRYIGVPSRFSGSGSGTDFTLTISSLQPEDFATYYCAQFYVYPLTFGGGTKVEIK	OD450	OD450	0.05
PcOxP_DB01_C01 (scFv, V domains shown, scFv in periplasmic extract) VH: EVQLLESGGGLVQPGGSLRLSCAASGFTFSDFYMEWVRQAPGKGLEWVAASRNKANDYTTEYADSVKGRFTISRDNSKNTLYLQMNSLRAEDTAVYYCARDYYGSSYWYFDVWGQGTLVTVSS VL: DIQMTQSPSSLSASVGDRVTITCVASESLYSSKHKVHYLAWYQQKPGKAPKLLIYGASNRYIGVPSRFSGSGSGTDFTLTISSLQPEDFATYYCAQFYSYPLTFGGGTKVEIK	OD450	OD450	0.06

According to the records, this binder PcOxP_DB02_C02 (scFv, V domains shown, scFv in periplasmic extract) VH: EVQLLESGGGLVQPGGSLRLSCAASGFTFSDFYMEWVRQAPGKGLEWVAASRNKANDYTVEYADSVKGRFTISRDNSKNTLYLQMNSLRAEDTAVYYCARDYYGHSYWYFDVWGQGTLVTVSS VL: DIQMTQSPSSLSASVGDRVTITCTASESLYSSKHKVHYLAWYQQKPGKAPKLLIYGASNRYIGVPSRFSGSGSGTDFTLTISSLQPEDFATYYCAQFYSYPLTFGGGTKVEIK displays OD450 of 0.05
